Reported values of Ki for individual entries
Molecular target: JAK3 (Homo sapiens, UniProt P52333)
Sequence (P52333 1-1124): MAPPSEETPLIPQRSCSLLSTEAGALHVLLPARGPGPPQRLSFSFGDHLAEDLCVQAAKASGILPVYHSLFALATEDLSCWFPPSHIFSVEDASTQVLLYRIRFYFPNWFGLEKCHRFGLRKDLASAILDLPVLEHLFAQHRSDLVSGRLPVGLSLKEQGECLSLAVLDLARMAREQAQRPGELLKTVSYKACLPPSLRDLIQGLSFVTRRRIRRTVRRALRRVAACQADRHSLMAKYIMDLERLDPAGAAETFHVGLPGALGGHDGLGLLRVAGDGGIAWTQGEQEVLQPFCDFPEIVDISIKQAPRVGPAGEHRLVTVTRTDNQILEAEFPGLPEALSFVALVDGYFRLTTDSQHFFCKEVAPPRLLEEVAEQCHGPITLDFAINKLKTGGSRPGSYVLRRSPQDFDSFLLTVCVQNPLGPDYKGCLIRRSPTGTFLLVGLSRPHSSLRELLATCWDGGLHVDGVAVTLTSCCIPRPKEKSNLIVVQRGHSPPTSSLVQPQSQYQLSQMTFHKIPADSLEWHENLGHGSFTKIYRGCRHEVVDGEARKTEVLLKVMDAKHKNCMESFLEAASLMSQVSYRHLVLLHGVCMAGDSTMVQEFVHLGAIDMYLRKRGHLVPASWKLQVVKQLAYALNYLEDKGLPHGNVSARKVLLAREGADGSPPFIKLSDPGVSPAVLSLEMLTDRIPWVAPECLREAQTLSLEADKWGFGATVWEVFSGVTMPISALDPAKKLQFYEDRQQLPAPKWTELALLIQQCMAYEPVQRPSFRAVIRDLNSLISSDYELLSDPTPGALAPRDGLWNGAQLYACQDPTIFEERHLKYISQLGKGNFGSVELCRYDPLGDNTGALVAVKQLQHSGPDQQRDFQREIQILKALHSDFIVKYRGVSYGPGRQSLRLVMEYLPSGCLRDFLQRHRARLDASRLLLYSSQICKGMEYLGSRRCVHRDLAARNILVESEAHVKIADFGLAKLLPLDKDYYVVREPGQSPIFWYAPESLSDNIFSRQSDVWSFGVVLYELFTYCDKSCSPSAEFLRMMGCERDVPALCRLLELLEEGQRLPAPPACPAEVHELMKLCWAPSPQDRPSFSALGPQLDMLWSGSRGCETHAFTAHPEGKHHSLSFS

Example results:
>  <Compound>
CN(CC(F)(F)F)C(=O)c1cc(-c2ncnc3[nH]ccc23)c[nH]1

>  <Study Target>
JAK3 (Homo sapiens, UniProt P52333)

>  <Ki>
100 to 500 nM

$$$$
>  <Compound>
O=C(c1cc(-c2ncnc3[nH]ccc23)c[nH]1)N(CCC(F)(F)F)Cc1ccccc1

>  <Study Target>
JAK3 (Homo sapiens, UniProt P52333)

>  <Ki>
< 100 nM

$$$$
>  <Compound>
O=C(c1ccc(-c2ncnc3[nH]ccc23)o1)N(CCC(F)(F)F)CC1CC1

>  <Study Target>
JAK3 (Homo sapiens, UniProt P52333)

>  <Ki>
< 100 nM

$$$$
>  <Compound>
Cn1cc(-c2ncnc3[nH]ccc23)cc1C(=O)N(CCC(F)(F)F)CC1CCC1

>  <Study Target>
JAK3 (Homo sapiens, UniProt P52333)

>  <Ki>
< 100 nM

$$$$
>  <Compound>
O=C1[C@H]2CCCC[C@H]2C(=O)N1c1nc(-c2ncnc3[nH]ccc23)cs1

>  <Study Target>
JAK3 (Homo sapiens, UniProt P52333)

>  <Ki>
100 to 500 nM

$$$$
>  <Compound>
Cn1cc(-c2ncnc3[nH]ccc23)cn1

>  <Study Target>
JAK3 (Homo sapiens, UniProt P52333)

>  <Ki>
100 to 500 nM

$$$$

[Q] Find the measured Ki: item "O=C(CCC(=O)C1CC1)Nc1nc(-c2ncnc3[nH]ccc23)cs1" , target or system JAK3 (Homo sapiens, UniProt P52333).
[A] 100 to 500 nM

[Q] Missing value: Ki, JAK3 (Homo sapiens, UniProt P52333), entry "CC(C)CC(=O)N(CCCC(F)(F)F)c1nc(-c2ncnc3[nH]ccc23)cs1" . Fill in?
[A] 100 to 500 nM

[Q] Hello, I am looking for reported Ki with JAK3 (Homo sapiens, UniProt P52333) for O=C(c1cc(-c2ncnc3[nH]ccc23)c[nH]1)N1CCC(O)C1 (stereo not drawn) [Compound 45] . Could you help?
[A] 500 to 5000 nM

[Q] // lookup Ki | system=JAK3 (Homo sapiens, UniProt P52333) | key= CC1CCC(C)N1C(=O)c1cc(-c2ncnc3[nH]ccc23)c[nH]1 (stereo not drawn)
[A] < 100 nM

[Q] Missing value: Ki, JAK3 (Homo sapiens, UniProt P52333), entry "C#CCNC(=O)c1cc(-c2ncnc3[nH]ccc23)c[nH]1" . Fill in?
[A] 100 to 500 nM

[Q] For the record "O=C1CCC(C(=O)Nc2nc(-c3ncnc4[nH]ccc34)cs2)CC1" , what value of Ki is listed for JAK3 (Homo sapiens, UniProt P52333)?
[A] < 100 nM

[Q] Query the reported Ki for JAK3 (Homo sapiens, UniProt P52333); item: "CCCN(CC1CC1)C(=O)c1cc(-c2ncnc3[nH]ccc23)c[nH]1"
[A] < 100 nM

[Q] Tell me reported Ki for CC(C(=O)NC1CC1)n1cc(-c2ncnc3[nH]ccc23)cn1 (stereo not drawn) , tested with JAK3 (Homo sapiens, UniProt P52333).
[A] 100 to 500 nM

[Q] Which measured Ki belongs to O=C(c1cc(-c2ncnc3[nH]ccc23)c[nH]1)N1CCC(O)C1 (stereo not drawn) [Compound 56] , tested on JAK3 (Homo sapiens, UniProt P52333)?
[A] 500 to 5000 nM

====

Notes on pKi obtained with JAK-2 enzyme (Homo sapiens, UniProt O60674).
Sequence (O60674 whole entry, species assumed): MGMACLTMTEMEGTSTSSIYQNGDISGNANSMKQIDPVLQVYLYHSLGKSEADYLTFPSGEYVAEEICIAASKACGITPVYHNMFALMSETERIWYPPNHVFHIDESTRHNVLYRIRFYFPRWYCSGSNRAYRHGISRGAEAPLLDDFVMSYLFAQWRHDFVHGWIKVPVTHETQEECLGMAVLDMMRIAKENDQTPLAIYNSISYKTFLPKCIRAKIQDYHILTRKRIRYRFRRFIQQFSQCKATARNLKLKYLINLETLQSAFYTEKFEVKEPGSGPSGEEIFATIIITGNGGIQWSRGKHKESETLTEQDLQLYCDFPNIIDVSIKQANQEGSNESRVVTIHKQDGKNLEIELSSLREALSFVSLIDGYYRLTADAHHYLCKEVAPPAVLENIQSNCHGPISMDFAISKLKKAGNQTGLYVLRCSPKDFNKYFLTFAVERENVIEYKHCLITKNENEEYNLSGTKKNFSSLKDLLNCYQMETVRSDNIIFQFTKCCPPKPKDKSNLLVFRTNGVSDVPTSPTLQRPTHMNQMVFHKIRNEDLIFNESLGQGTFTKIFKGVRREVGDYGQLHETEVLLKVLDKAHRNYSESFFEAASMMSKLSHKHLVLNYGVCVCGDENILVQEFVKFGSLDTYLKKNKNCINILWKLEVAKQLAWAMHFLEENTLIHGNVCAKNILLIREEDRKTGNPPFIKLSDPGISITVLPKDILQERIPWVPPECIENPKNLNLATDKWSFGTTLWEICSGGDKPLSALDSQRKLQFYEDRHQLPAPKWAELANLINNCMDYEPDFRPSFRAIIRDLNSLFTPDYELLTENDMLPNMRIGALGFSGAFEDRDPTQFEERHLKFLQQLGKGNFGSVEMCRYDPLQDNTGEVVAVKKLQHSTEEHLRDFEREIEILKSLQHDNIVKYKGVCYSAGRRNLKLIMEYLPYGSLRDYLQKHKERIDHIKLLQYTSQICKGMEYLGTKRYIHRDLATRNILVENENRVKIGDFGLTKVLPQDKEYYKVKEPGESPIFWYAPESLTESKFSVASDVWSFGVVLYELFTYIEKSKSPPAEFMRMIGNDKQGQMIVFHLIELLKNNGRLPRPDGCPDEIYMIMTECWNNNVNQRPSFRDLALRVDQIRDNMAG
pKi: −log10 of the molar value.

>  <Molecule>
O=C(c1cc(-c2ncnc3[nH]ccc23)co1)N(CCC(F)(F)F)CC1CCC1

>  <Study Target>
JAK-2 enzyme (Homo sapiens, UniProt O60674)

>  <pKi>
> 7.00

$$$$
>  <Molecule>
O=C(c1coc(-c2ncnc3[nH]ccc23)c1)N(CCC(F)(F)F)CC1CC1

>  <Study Target>
JAK-2 enzyme (Homo sapiens, UniProt O60674)

>  <pKi>
> 7.00

$$$$
>  <Molecule>
COCCN(C)C(=O)c1cc(-c2ncnc3[nH]ccc23)cn1C

>  <Study Target>
JAK-2 enzyme (Homo sapiens, UniProt O60674)

>  <pKi>
> 7.00

$$$$

[Q] State its pKi on JAK-2 enzyme (Homo sapiens, UniProt O60674): "O=C(CCc1ccccc1)Nc1nc(-c2ncnc3[nH]ccc23)cs1"
[A] > 7.00

[Q] Give the reported pKi for "Cn1cc(-c2ncnc3[nH]ccc23)cc1C(=O)N(CCC(F)(F)F)CC1CCC1" (system: JAK-2 enzyme (Homo sapiens, UniProt O60674)).
[A] > 7.00

[Q] Entry "CCCCCN(C)C(=O)c1cc(-c2ncnc3[nH]cc(C)c23)c[nH]1" , system JAK-2 enzyme (Homo sapiens, UniProt O60674): what pKi was measured?
[A] > 7.00

[Q] Please tell me: pKi of "C=CCN(C(=O)c1cc(-c2ncnc3[nH]ccc23)co1)[C@@H](C)c1ccccc1" , system JAK-2 enzyme (Homo sapiens, UniProt O60674)?
[A] > 7.00

[Q] Test system JAK-2 enzyme (Homo sapiens, UniProt O60674); read-out pKi; what value for "CC(C)Cn1cc(-c2ncnc3[nH]cc(Cl)c23)cn1" ?
[A] > 7.00

[Q] Given the entry "CC(C)CC(=O)Nc1nc(-c2ncnc3[nH]ccc23)cs1" , what pKi was observed with JAK-2 enzyme (Homo sapiens, UniProt O60674)?
[A] > 7.00

[Q] Notebook entry, JAK-2 enzyme (Homo sapiens, UniProt O60674) assay: pKi of CC(C)OCCNC(=O)C(C)n1cc(-c2ncnc3[nH]ccc23)cn1 (stereo not drawn) = ?
[A] 5.30 to 6.30

[Q] Reported pKi for JAK-2 enzyme (Homo sapiens, UniProt O60674), given "C[C@@H]1CC[C@H](C)N1C(=O)c1cc(-c2ncnc3[nH]ccc23)c[nH]1" ?
[A] > 7.00

[Q] Fill in the recorded pKi for this molecule, with JAK-2 enzyme (Homo sapiens, UniProt O60674) as test system: CC(C(=O)NCC(F)(F)F)n1cc(-c2ncnc3[nH]ccc23)cn1 (stereo not drawn)
[A] > 7.00

[Q] What is its pKi for JAK-2 enzyme (Homo sapiens, UniProt O60674)? Entry: "O=C1CCC(C(=O)Nc2nc(-c3ncnc4[nH]ccc34)cs2)CC1"
[A] > 7.00

[Q] Entry "N#CCNC(=O)c1cc(-c2ncnc3[nH]ccc23)c[nH]1" , system JAK-2 enzyme (Homo sapiens, UniProt O60674): what pKi was measured?
[A] > 7.00

[Q] Identify the measured pKi of "C=CCCC(=O)Nc1nc(-c2ncnc3[nH]ccc23)cs1" for JAK-2 enzyme (Homo sapiens, UniProt O60674).
[A] > 7.00

[Q] Record lookup: for JAK-2 enzyme (Homo sapiens, UniProt O60674), what pKi belongs to CCCCC(CC)n1cc(-c2ncnc3[nH]ccc23)cn1 (stereo not drawn) ?
[A] > 7.00
